- Test system: bed bugs
- ASSAY SUMMARY: Choice test with unconcealed bed bugs on filter paper discs, test compound in acetone vs. acetone only (percent repellency)
- Assay type: in vivo
- EXPERIMENTAL CONTEXT: chemical at 0.5% in acetone on filter paper; 24 hr post-treatment; read-out: percent repellency at 24 hr
OBSERVABLE: pest or weed control at 0.5 % (%)
Quick note: give the figure in %, leave out the unit.

# annotated cases, reported pest or weed control at 0.5 % shown
{"COMPOUND": "CC(C)=CCCC(C)=CCC1CCCC1=O (stereo not drawn) [2-Geranylcyclopentanone (Apritone)]", "TARGET UNDER TEST": "bed bugs", "pest or weed control at 0.5 %, %": 100}
{"COMPOUND": "CCCCCCCCCCCC(C)=O [Methyl undecyl ketone, 2-tridecanone]", "TARGET UNDER TEST": "bed bugs", "pest or weed control at 0.5 %, %": 100}

Ask: Under bed bugs: pest or weed control at 0.5 % value of CC1=CCCC(C)(C)C1/C=C/C(=O)CC(C)C (stereo not drawn) [Isobutylionone] ?
Reply: 94

Ask: Under bed bugs: pest or weed control at 0.5 % value of O=C1CCCC1C1CCCC1 (stereo not drawn) [2-Cyclopentylcyclopentanone, 2-cyclopentylcyclopentanone] ?
Reply: 70

Ask: Under bed bugs: pest or weed control at 0.5 % value of CC(=O)C(C)=CC1C(C)=CCCC1(C)C (stereo not drawn) [Alpha Isomethylionone] ?
Reply: 84

Ask: Under bed bugs: pest or weed control at 0.5 % value of CCCCCC=CCC1CCCC1=O (stereo not drawn) [2-Octenylcyclopentanone, 2-(2-octen-1-yl)cyclopentanone] ?
Reply: 100

Ask: Under bed bugs: pest or weed control at 0.5 % value of CCCCCCCCC(=O)C(C)=O [2,3-Undecanedione, reference compound] ?
Reply: 90

Ask: Under bed bugs: pest or weed control at 0.5 % value of CCC(=O)/C(C)=C/C1C(C)CC=CC1(C)C (stereo not drawn) [Dimethylionone] ?
Reply: 92

Ask: Under bed bugs: pest or weed control at 0.5 % value of CC1=CCC(C(C)CC2CCCC2=O)CC1 (stereo not drawn) [Nectaryl ™] ?
Reply: 100

* * *

- Tested on: bed bugs
- ASSAY SUMMARY: Choice test with unconcealed bed bugs on filter paper discs, test compound in acetone vs. acetone only (percent repellency)
- Format: in vivo
- EXPERIMENTAL CONTEXT: chemical at 0.5% in acetone on filter paper; 24 hr post-treatment; read-out: percent repellency at 24 hr
- Description: This test was undertaken employing unconcealed bugs. Two semicircular discs of filter paper, 9 cm in radius treated with 1 ml of solution to wet the entire surface, one treated with an acetone solution of the test compound and one only acetone treated were placed on the lid of a Petri dish. […] The distribution of bed bugs was recorded at ½, […], 2, 6 and 24 hours post-treatment. […]
OBSERVABLE: pest or weed control at 0.5 % (%)
Quick note: give the figure in %, leave out the unit.

# annotated cases, reported pest or weed control at 0.5 % shown
{"COMPOUND": "CCCCCCCCCCC(C)=O", "pest or weed control at 0.5 % [%]": 100}
{"COMPOUND": "CC1(C)C2CCC3(C2)C1C(=O)CCC3(C)C (centres unmarked)", "pest or weed control at 0.5 % [%]": 98}
{"COMPOUND": "C=C(C)C1CCC2=CC(=O)CC(C)C2(C)C1 (centres unmarked)", "pest or weed control at 0.5 % [%]": 100}
{"COMPOUND": "CCCCCCC=CC(C)=O", "pest or weed control at 0.5 % [%]": 76}

Okay, next one:
Ask: Under bed bugs: pest or weed control at 0.5 % value of CC(=O)CCC=C(C)CCC=C(C)C ?
Reply: 100
